I'd be grateful if you could share measured melting point for these entries.

[[record]]
compound = "CC(C)=NOCc1nc2c(N)nc3ccccc3c2n1CCCNS(C)(=O)=O"
property_name = "melting point"
test_value = "178 to 179 °C"

[[record]]
compound = "COc1cc(C(=O)O)cc(OC)c1Cc1cnc(N)nc1N"
property_name = "melting point"
test_value = "264 to 267 °C"

[[record]]
compound = "N#Cc1cc(C(=O)NNC(=O)c2occc2-c2ccc(Oc3ccccc3)cc2)ccc1O"
property_name = "melting point"
test_value = "199 to 200 °C"

[[record]]
compound = "COc1cc(C(O)c2ccc(C)cc2)cc(C2OCCCO2)c1OC (stereo not given)"
property_name = "melting point"
test_value = "83 to 84 °C"

[[record]]
compound = "CC(=O)C(C)(C)Nc1ccccc1"
property_name = "melting point"
test_value = "65 to 66 °C"


Hi, could you look up melting point for each item in my list?
1. Cc1cc(Cl)ccc1C(=O)CN(C(=O)C(C)Cl)c1ccccc1 (stereo not given)
2. CCOC(=O)N1CCc2c(cnc3nc(/C=C4/C(=O)N5C(C(=O)O)=CS[C@H]45)nn23)C1
3. Cc1ccc(S(=O)(=O)Cc2ccc(C(C)(C)N)cc2)cc1C
4. O=C(NCc1c[nH]c(=S)n1[C@H]1CCc2c(F)cc(F)cc2C1)c1ccccn1
5. CCOC(=O)c1csc2cc(Oc3ccnc(N)n3)ccc12
6. Cc1cccc(CCCCCCCCC(=O)NO)c1
7. O=C(NC1CCN(C(=O)c2ccccc2)CC1)c1ccccc1Oc1ccc(Cl)cc1Cl
8. Cn1nc(N)nc1NCCCOc1cccc2c(N3CCCCC3)nccc12

## Result
1: 128 °C; 2: > 250 °C; 3: 129 to 130 °C; 4: 216 to 217 °C; 5: 144 to 145 °C; 6: 49 to 50 °C; 7: 63 to 66 °C; 8: 173 °C

Please go through the list and note melting point for each compound.
1. O=C1Nc2ccccc2S(=O)(=O)c2ccccc21
2. Cc1ccc(-c2nc(C)c3c(=O)[nH]ncn23)cc1

## Result
["284 to 286 °C", "251 to 253 °C"]

* * *

property.name: melting point

Worked cases, melting point given:
[[record]]
compound = "O=[N+]([O-])c1cc(C(F)(F)F)ccc1Sc1nc(-c2ccccc2)c(-c2ccccc2)[nH]1"
test_value = "234 to 236 °C"

[[record]]
compound = "Clc1ccc(-c2oncc2-c2ccncc2)cc1"
test_value = "121 °C"

[[record]]
compound = "CC(Oc1ccc(Oc2ccc(F)cc2)cc1)(C(=O)O)c1ccccc1 (configuration not stated)"
test_value = "113 to 115 °C"

[[record]]
compound = "CC(NC(=O)C1CCCN1C(=O)CNP(=O)(Cc1ccccc1)Cc1ccccc1)C(=O)OCc1ccccc1 (configuration not stated)"
test_value = "77 to 80 °C"

[[record]]
compound = "CCOC(=O)c1ccc2c(c1)CC(CO)O2 (configuration not stated)"
test_value = "72 to 77 °C"


Give melting point for each of the items listed below.
1. CNC(=O)c1cc(C)ccc1Nc1nc(Nc2ccc3c(c2)CCN(CCOC)CC3)ncc1Cl
2. COc1ccc(-c2[nH]nc3c2C(=O)c2c(NC(=O)CN)cccc2-3)cc1
3. Cc1cc(C)cc(C(=O)N(N(C(=O)c2ccc3c(c2C)OCCO3)C(=O)N(C)C)C(C)(C)C)c1
4. COC(=O)CCCc1cc2cc(Cl)ccc2n1S(=O)(=O)c1ccc2nsnc2c1
5. C#Cc1cc(F)c(-n2c(=O)cc(C(F)(F)F)n(C)c2=O)c2c1OC(C)C2 (configuration not stated)
6. CN(CCF)c1ccc2cc(-c3nc4ccccc4s3)c(=O)oc2c1
7. COc1ccc(F)c(-n2c(=O)[nH]c3c(C(N)=O)nc(-c4cccc(O)c4)nc32)c1

## Result
["210 to 212 °C", "> 300 °C", "60 to 64 °C", "103 to 106 °C", "69 to 72.5 °C", "231 to 233 °C", "> 260 °C"]

Give one value of melting point per listed compound.
1. C[Si]1(C)CCCCCCCCCC[Si](C)(C)O[Si](C)(C)CCCCCCCCCC[Si](C)(C)O1
2. NC(=O)c1c[nH]c2cc(Cl)c([N+](=O)[O-])cc2c1=O

## Result
["90 °C", "298 to 300 °C"]

For every listed record, write down its melting point.
1. O=C1CCCc2c1ccc(O)c2O
2. NS(=O)(=O)c1ccc(C2(c3nc4cc(F)ccc4[nH]3)C=C(C(F)(F)F)NN2)cc1 (configuration not stated)
3. CC(=O)OCC1OC(n2c(Br)nc3cc(Cl)c(Cl)cc32)C(OC(C)=O)C1OC(C)=O (configuration not stated)
4. Nc1cccc(OCc2ccccc2)c1N
5. CNC(=O)N1CC(Oc2ccc(Cl)cc2)C1
6. O=C(c1ccccc1)c1cn2c3ccccc3c3cccc(c1=O)c32

## Result
191 to 194 °C
309 to 310 °C
< 65 °C
68 °C
144 to 145 °C
158 to 160 °C

* * *

Provide the reported melting point of each item.

# count of solved cases: 3
[[record]]
molecule = "COC(=O)COc1ccc(C(=O)NNC(=O)c2ccc(C(=N)SC)cc2)cc1"
property_name = "melting point"
test_value = "208 to 210 °C"

[[record]]
molecule = "CCOC(=O)CCc1cc(-c2cc3ccccc3c(=O)o2)ccc1OC"
property_name = "melting point"
test_value = "105 to 106 °C"

[[record]]
molecule = "O=C(NC(=O)c1c(F)cccc1F)Nc1ccc(SC(F)(F)F)cc1F"
property_name = "melting point"
test_value = "173 to 175 °C"


Fill in melting point for each of the 4 molecules listed.
1. N#CC1(c2ccc(C(=O)c3cccs3)cc2)CC1
2. CN1CCCC1CCNC(=O)Cn1c(-c2ccc(Cl)cc2)nc2cccnc21 (configuration not stated)
3. COC(=O)c1nc(SC(F)(F)F)c(N)nc1N
4. CCCCc1nnc2ccccc2c1Cc1ccc(-c2ccccc2C(=O)O)cc1

## Result
1. 106 °C
2. 170 to 172 °C
3. 151 to 155 °C
4. 210 °C

* * *

property.name: melting point

Check out these entries, answers already filled in.
[[record]]
compound = "CC1CNc2c(cccc2S(=O)(=O)N[C@@H](CCCNC(=N)N)C(=O)N2CC[C@@H](C)C[C@@H]2C(=O)O)C1 (stereo partly drawn)"
test_value = "188 to 191 °C"

[[record]]
compound = "COC(=O)c1nc(-c2ccc(F)c(C)c2F)cc(NC(C)=O)c1Cl"
test_value = "152 to 153 °C"


Could you now consider this next compound?
The compound listed as CN1C(=O)Nc2ccc(-c3cccc(Cl)c3)cc2C1(C)C1CC1 (stereo not drawn) has a reported melting point of 193 to 194 °C

* * *

property.name: melting point

Sample answers from the record:
[[record]]
compound = "CCON=C(C(=O)OCC)C1=CSc2ccccc2S1"
property_name = "melting point"
test_value = "78 to 81 °C"

[[record]]
compound = "CC1(C)CN=C(c2cnc(S(C)(=O)=O)c(Cl)c2)O1"
property_name = "melting point"
test_value = "102 to 105 °C"


Record melting point for all entries; do not skip any.
1. CCC12CCC(NC(=O)C=CC(=O)OC)C3Oc4c(O)ccc5c4C31CCN(CC1CC1)C2C5 (centres undefined)
2. Fc1ccc2c(C3CCNCC3)n[nH]c2c1

## Result
1. 233 to 236 °C
2. 214 to 216 °C

// input: 3 compounds below; output: melting point for each
1. CC(=O)NNCC1CC2c3cccc4c3c(cn4C)CC2N(C)C1 (centres undefined)
2. COc1cc2c(c3c1OC(C)(C)C3)C(c1ccccc1)=NC(C)(CN1C(=O)c3ccccc3C1=O)C2 (centres undefined)
3. COC(=O)c1cc2ccc(OCc3ccccc3)cc2oc1=O

## Result
["190 to 192 °C", "121 to 125 °C", "129 to 130 °C"]

Please look at the items below and tell me melting point for each one, in order.
1. Nc1ccncc1Nc1cccc2cc[nH]c12
2. O=C(O)[C@@H]1Cc2cc(Cl)cc(Cl)c2O[C@@H]1C(F)(F)F
3. O=c1n(CCCF)nnn1-c1cc([N+](=O)[O-])c(Cl)cc1F
4. CCCCCCCCCCC#Cc1csc(CC(N)CO)c1 (centres undefined)
5. Cc1ccc(S(=O)(=O)NC(=O)C(C)c2ccc3cc(OCc4ccc5ccccc5n4)ccc3c2)cc1 (centres undefined)

## Result
68 to 70 °C
100 to 101 °C
80 to 81 °C
85 to 135 °C
201 to 205 °C

I have 2 compounds here; please give me melting point for each one.
1. Nc1c(Cl)cc(C(=O)NC2CCN(CC3CCCO3)CC2)c2c1CCO2 (centres undefined)
2. c1ccc(Cn2ccnc2-c2nnn[nH]2)cc1

## Result
175 °C
274 to 275 °C
